Data origin, for the record: patent US20180125835A1

assay: Safety and tolerability study, single-dose pharmacokinetics (Parts A, B, C); type: in vivo, human; settings: both sexes, human, plasma, oral, 10 mg, Part B, healthy elderly overall, arithmetic mean
REPORTED_PROPERTY: Cmax (ng/mL)
Answers are plain numbers, in ng/mL.

## Input GET /values?readout=Cmax&item= Cc1ccc(C(=O)Nc2nc(-c3ccco3)c(C(=O)C3CCOCC3)s2)cn1 [Compound 504]
## Output 717

###

experiment: Safety and tolerability study, single-dose pharmacokinetics (Parts A, B, C); assay type: in vivo, human; settings: male, human, plasma, oral, 10 mg, Part B, healthy elderly men, 10 mg, arithmetic mean; read-out: t1/2 (converted)
REPORTED_PROPERTY: half-life

## Input Which half-life reading was recorded for the compound Cc1ccc(C(=O)Nc2nc(-c3ccco3)c(C(=O)C3CCOCC3)s2)cn1 ?
## Output 21.6 h

###

assay: Safety and tolerability study, single-dose pharmacokinetics (Parts A, B, C); format: in vivo, human; settings: male, human, plasma, oral, 5 mg, Part B, healthy elderly men, 5 mg, arithmetic mean; read-out: t1/2 (converted)
REPORTED_PROPERTY: half-life
Could you give the number and then its unit, please?

## Input Which half-life is listed for Cc1ccc(C(=O)Nc2nc(-c3ccco3)c(C(=O)C3CCOCC3)s2)cn1 ?
## Output 23.5 h

###

biological target: A2A receptor (Mus musculus, UniProt Q60613)
Sequence (Q60613 whole entry): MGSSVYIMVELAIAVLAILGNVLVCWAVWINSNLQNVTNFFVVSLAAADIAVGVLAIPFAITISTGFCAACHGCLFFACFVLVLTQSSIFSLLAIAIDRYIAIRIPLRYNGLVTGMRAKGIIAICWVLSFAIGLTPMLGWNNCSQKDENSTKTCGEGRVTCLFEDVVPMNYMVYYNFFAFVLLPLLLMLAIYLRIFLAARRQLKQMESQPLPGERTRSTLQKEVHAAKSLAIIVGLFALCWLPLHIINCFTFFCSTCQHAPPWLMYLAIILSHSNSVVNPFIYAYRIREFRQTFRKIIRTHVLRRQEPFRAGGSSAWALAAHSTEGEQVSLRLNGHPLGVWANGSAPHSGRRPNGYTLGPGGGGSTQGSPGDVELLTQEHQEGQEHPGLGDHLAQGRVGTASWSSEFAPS
REPORTED_PROPERTY: Ki (nM)
Answers are plain numbers, in nM.

## Input Could you share which Ki value was measured for Cc1ccc(C(=O)Nc2nc(-c3ccco3)c(C(=O)C3CCOCC3)s2)cn1 ?
## Output 0.322

###

test: Safety and tolerability study, single-dose pharmacokinetics (Parts A, B, C); type: in vivo, human; conditions: female, human, plasma, oral, 10 mg, Part B, healthy elderly women, 10 mg, median; read-out: tmax
REPORTED_PROPERTY: Tmax
Dear colleague, please send the value followed by its unit.

## Input Consider the compound shown here: Cc1ccc(C(=O)Nc2nc(-c3ccco3)c(C(=O)C3CCOCC3)s2)cn1 What is its recorded Tmax?
## Output 45 min

###

assay: Safety and tolerability study, single-dose pharmacokinetics (Parts A, B, C); type: in vivo, human; conditions: both sexes, human, plasma, oral, 10 mg, Part B, healthy elderly overall, arithmetic mean
REPORTED_PROPERTY: AUC(0-inf) (ng·h/mL)
Numbers only, in ng·h/mL.

## Input Give its AUC(0-inf) value. Item: Cc1ccc(C(=O)Nc2nc(-c3ccco3)c(C(=O)C3CCOCC3)s2)cn1 [Compound 504]
## Output 14900

###

target: A2A receptor (Canis lupus familiaris, UniProt P11617)
Sequence (P11617 whole entry): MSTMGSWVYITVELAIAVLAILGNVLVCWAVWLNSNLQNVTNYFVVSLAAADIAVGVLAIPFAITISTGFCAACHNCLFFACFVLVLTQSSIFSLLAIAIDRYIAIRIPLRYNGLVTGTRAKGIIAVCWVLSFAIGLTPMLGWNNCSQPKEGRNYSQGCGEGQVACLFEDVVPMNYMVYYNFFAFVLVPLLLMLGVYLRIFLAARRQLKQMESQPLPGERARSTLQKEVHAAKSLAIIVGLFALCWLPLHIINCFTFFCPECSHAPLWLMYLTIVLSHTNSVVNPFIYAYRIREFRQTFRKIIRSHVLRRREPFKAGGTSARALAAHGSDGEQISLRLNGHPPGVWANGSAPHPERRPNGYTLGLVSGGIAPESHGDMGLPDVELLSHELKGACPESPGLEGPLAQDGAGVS
REPORTED_PROPERTY: Ki (pM)
One number for each entry, in pM.

## Input Fill in: Ki of Cc1ccc(C(=O)Nc2nc(-c3ccco3)c(C(=O)C3CCOCC3)s2)cn1 is ___
## Output 283

###

test: Safety and tolerability study, single-dose pharmacokinetics (Parts A, B, C); assay type: in vivo, human; conditions: both sexes, human, plasma, oral, 5 mg, Part C, elderly men and women, Fasting (N = 24)
REPORTED_PROPERTY: AUC(0-t) (ng·h/mL)
Give bare numbers, in ng·h/mL.

## Input Consider the compound shown here: Cc1ccc(C(=O)Nc2nc(-c3ccco3)c(C(=O)C3CCOCC3)s2)cn1 [Compound 504] What is its recorded AUC(0-t)?
## Output 5960
